# STUDY_SYSTEM: Peroxisome proliferator-activated receptor gamma (Homo sapiens)
# Sequence (P37231 whole entry): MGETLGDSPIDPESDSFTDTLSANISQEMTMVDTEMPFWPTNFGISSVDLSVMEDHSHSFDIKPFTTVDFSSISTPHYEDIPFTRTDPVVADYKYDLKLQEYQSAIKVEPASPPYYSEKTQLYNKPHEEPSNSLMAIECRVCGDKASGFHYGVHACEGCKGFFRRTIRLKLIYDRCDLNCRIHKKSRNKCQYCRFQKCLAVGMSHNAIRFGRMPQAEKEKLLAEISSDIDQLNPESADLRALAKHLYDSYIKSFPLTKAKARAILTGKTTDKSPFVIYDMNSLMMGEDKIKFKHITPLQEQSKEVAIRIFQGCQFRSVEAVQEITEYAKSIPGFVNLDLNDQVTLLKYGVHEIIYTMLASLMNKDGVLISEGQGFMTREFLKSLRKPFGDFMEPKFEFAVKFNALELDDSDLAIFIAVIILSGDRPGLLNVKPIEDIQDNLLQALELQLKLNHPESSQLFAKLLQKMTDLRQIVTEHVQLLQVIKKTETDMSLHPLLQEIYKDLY
pIC50: −log10 of the molar value.
# pIC50 per record follows
READOUT_TYPE: pIC50

| MOLECULE | SIGN_QUALIFIER | OBSERVED_RESULT |
| --- | --- | --- |
| Cc1oc(-c2ccccc2)nc1CCOc1cccc([C@@H]2CN(C(=O)Oc3ccccc3)C[C@@H]2C(=O)O)c1 (racemic) | < | 5.00 |
| CCOC(=O)N1C[C@H](C(=O)O)[C@H](c2ccc(OCCc3nc(-c4ccccc4)oc3C)cc2)C1 (racemic) | < | 5.00 |
| Cc1oc(-c2ccccc2)nc1CCOc1ccc(C[C@@H]2CN(C(=O)Oc3ccccc3)C[C@@H]2C(=O)O)cc1 | = | 7.10 |
| Cc1oc(-c2ccccc2)nc1CCOc1cccc(CC[C@@H]2CN(C(=O)Oc3ccccc3)C[C@@H]2C(=O)O)c1 (racemic) | = | 6.68 |
| Cc1oc(-c2ccccc2)nc1CCOc1ccc([C@H]2CN(C(=O)Oc3ccccc3)C[C@@H]2C(=O)O)cc1 (racemic) | = | 5.23 |
| CCOC(=O)N1C[C@@H](Cc2ccc(OCCc3nc(-c4ccccc4)oc3C)cc2)[C@@H](C(=O)O)C1 (racemic) | = | 5.57 |
| Cc1oc(-c2ccccc2)nc1CCOc1cccc(C[C@H]2CN(c3ccccc3)C[C@H]2C(=O)O)c1 | = | 6.85 |
| Cc1oc(-c2ccccc2)nc1CCOc1cccc([C@H]2CN(C(=O)Oc3ccccc3)C[C@@H]2CC(=O)O)c1 (racemic) | = | 5.74 |
| Cc1oc(-c2ccccc2)nc1CCOc1ccc(C[C@@H]2CN(c3ncccn3)C[C@@H]2C(=O)O)cc1 (racemic) | = | 5.69 |
| Cc1oc(-c2ccccc2)nc1CCOc1ccc(C[C@@H]2CN(c3nc4ccccc4o3)C[C@@H]2C(=O)O)cc1 (racemic) | = | 6.23 |
| CCOC(=O)N1C[C@@H](CCc2cccc(OCCc3nc(-c4ccccc4)oc3C)c2)[C@@H](C(=O)O)C1 (racemic) | = | 6.31 |
